# TEST_SYSTEM: CDK2/Cyclin E1 full length (Homo sapiens (Human))
# ASSAY_DETAILS: CDK2/Cyclin E1 full length mobility shift assay
PARAMETER_MEASURED: Ki (nM)

For orientation, consider the following solved cases.
- COMPOUND: "CC(C)NC(=O)O[C@@H]1CC[C@H](c2cc(NC(=O)c3cncn3C)n[nH]2)C1 [Example 260]"
  PARAMETER_MEASURED: "Ki"
  UNITS_LABEL: "nM"
  RESULT: 2.89
- COMPOUND: "COc1cc(CC(=O)Nc2cc([C@H]3CC[C@@H](OC(=O)NCCC(F)(F)F)C3)[nH]n2)ccn1 [Example 102]"
  PARAMETER_MEASURED: "Ki"
  UNITS_LABEL: "nM"
  RESULT: 0.39
- COMPOUND: "COc1ccc(CC(=O)Nc2cc([C@@H]3CC[C@H](OC(=O)N[C@H]4CC[C@](C)(O)CC4)C3)[nH]n2)cc1 [Example 565]"
  PARAMETER_MEASURED: "Ki"
  UNITS_LABEL: "nM"
  RESULT: 1.24
- COMPOUND: "CC(CC(F)(F)F)NC(=O)O[C@@H]1CC[C@H](c2cc(NC(=O)Cc3cnco3)n[nH]2)C1 (single isomer, unassigned) [Example 83]"
  PARAMETER_MEASURED: "Ki"
  UNITS_LABEL: "nM"
  RESULT: 0.69

(1) Cc1nnc(CC(=O)Nc2cc([C@H]3CC[C@@H](OC(=O)NC(C)(C)C)C3)[nH]n2)s1 [Example 305]
(2) CCCNC(=O)O[C@H]1CC[C@@H](c2cc(NC(=O)Cc3cnc(C)s3)n[nH]2)C1 [Example 22]
Short answer wanted: higher Ki, 1 or 2 ? Please identify the chosen entry by its label. 1
